target: human LTBR on cells (human, UniProt P36941 31-435); test: cell-based or functional assay
Decision: NFκB luc, 937.5 ng/ml, w/o x linker beneath 20000 RLU gives true (1); NFκB luc, 937.5 ng/ml, w/o x linker meeting or exceeding 20000 RLU gives false (0).

Previously resolved entries follow.
Binder	Qualitative Label
P1AF0079 (antibody, human IgG1, kappa, L234A L235A, V domains shown, human IgG1 PG LALA; from transgenic rabbit immunization; also called LTBR (0079)) VH: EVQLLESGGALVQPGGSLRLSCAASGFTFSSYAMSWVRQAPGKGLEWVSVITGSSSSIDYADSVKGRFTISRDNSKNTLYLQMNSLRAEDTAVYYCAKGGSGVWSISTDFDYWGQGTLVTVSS VL: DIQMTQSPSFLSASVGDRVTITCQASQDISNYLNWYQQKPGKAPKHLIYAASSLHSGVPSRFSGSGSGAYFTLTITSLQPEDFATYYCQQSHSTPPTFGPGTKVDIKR	true (1)
P1AE9450 (antibody, human IgG1, kappa, L234A L235A, V domains shown, human IgG1 PG LALA; from transgenic rabbit immunization; also called LTBR (9450)) VH: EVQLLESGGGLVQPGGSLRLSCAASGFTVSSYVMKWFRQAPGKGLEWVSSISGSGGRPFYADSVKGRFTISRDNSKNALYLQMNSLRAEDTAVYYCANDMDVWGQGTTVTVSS VL: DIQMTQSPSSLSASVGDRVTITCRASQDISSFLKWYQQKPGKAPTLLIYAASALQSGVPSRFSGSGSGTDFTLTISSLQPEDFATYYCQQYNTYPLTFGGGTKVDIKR	true (1)
P1AF0080 (antibody, human IgG1, kappa, L234A L235A, V domains shown, human IgG1 PG LALA; from transgenic rabbit immunization; also called LTBR (0080)) VH: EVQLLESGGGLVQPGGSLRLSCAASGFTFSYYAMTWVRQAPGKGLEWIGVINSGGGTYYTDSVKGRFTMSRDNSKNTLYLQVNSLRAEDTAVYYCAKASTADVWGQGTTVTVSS VL: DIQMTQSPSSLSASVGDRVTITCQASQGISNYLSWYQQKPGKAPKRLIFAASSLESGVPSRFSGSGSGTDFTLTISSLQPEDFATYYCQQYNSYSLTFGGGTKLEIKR	true (1)
P1AE9459 (antibody, human IgG1, kappa, L234A L235A, V domains shown, human IgG1 PG LALA; from transgenic rabbit immunization) VH: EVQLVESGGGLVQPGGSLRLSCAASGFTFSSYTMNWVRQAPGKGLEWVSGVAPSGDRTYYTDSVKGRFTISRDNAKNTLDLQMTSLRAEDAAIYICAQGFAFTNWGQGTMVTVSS VL: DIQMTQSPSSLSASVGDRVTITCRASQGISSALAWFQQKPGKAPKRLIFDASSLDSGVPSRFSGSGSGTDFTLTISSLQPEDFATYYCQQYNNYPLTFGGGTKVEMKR	false (0)

q: Determine whether this binder shows NFκB luc, 937.5 ng/ml, w/o x linker lower than 20000 RLU (ties excluded): P1AE1873 (CBE11) (antibody, human IgG1, kappa, L234A L235A, V domains shown) VH: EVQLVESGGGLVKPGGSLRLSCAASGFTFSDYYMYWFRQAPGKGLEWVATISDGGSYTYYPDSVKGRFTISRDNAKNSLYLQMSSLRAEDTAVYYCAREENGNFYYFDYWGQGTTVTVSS VL: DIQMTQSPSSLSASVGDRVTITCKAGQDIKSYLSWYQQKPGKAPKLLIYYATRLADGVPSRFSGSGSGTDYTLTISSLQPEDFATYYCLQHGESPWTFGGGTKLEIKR
a: false (0)
